Experimental Protocol: Stability in 20% mouse serum/PBS
Type: in vitro ADME
Condition Label: mouse, 20% mouse serum in PBS
Where a SMILES comes first, the peptide text is derived from it. [ ]: non-standard residue; d: D form. The star is where a group is joined. Cha = N[C@@H](CC1CCCCC1)C(=O)O; Bz = O=C(c1ccccc1)*
Measured Attribute: remaining at 0.5 h (%)
Give a bare numeral; the unit % is implied.

Reported remaining at 0.5 h of CC[C@H](C)[C@H](NC(=O)[C@H](CC1CCCCC1)NC(=O)[C@H](Cc1c[nH]cn1)NC(=O)[C@H](CCCNC(=N)N)NC(=O)c1ccccc1)C(=O)N[C@@H](CC(N)=O)C(=O)N[C@@H](Cc1c[nH]c2ccccc12)C(=O)N[C@H](C(=O)N[C@H](C(=O)N[C@@H](CCCNC(=N)N)C(=O)N[C@@H](CCC(N)=O)C(=O)N[C@@H](CCCNC(=N)N)C(=O)N[C@@H](CC1CCCCC1)C(N)=O)[C@@H](C)O)[C@@H](C)CC [Compound 5] (Bz-RH[Cha]INWITRQR[Cha]-NH2) : 93
